Assay: Hemolytic activity in human RBC at 12.5 ug/mL after 1 hr by spectrophotometric analysis relative to control
Type: ADME, cell-based, Erythrocyte
Conditions: human red blood cells, read-out: Activity
quantity.name: hemolysis at 1 h, 12.5 ug/mL (%)

c1coc(C(c2c[nH]c3ccccc23)c2c[nH]c3ccccc23)c1 : 50

====

Test system: Escherichia coli
Test: Antibacterial activity against Escherichia coli assessed as growth inhibition by agar plate method
Assay type: functional
# maps each entry to its MIC
quantity.name: MIC (µg/mL)

c1ccc2c(Cc3c[nH]c4ccccc34)c[nH]c2c1 [ARUNDINE] : 250
c1cncc(C(c2c[nH]c3ccccc23)c2c[nH]c3ccccc23)c1 : 31.2
c1ccc2c(C(c3c[nH]c4ccccc34)c3c[nH]c4ccccc34)c[nH]c2c1 : 125
OC[C@@H](O)[C@@H](O)[C@@H](O)C(c1c[nH]c2ccccc12)c1c[nH]c2ccccc12 : 62.5
c1coc(C(c2c[nH]c3ccccc23)c2c[nH]c3ccccc23)c1 : 62.5
CN[C@@H]1[C@H](O[C@H]2[C@H](O[C@H]3[C@H](O)[C@@H](O)[C@H](N=C(N)N)[C@@H](O)[C@@H]3N=C(N)N)O[C@@H](C)[C@]2(O)C=O)O[C@@H](CO)[C@H](O)[C@H]1O [STREPTOMYCIN] : 6.25

====

The entries below come with measured MIC values attached.
System: Mycolicibacterium smegmatis
Assay: Antibacterial activity against Mycobacterium smegmatis assessed as growth inhibition by agar plate method
Format: functional
quantity.name: MIC (µg/mL)

c1cncc(C(c2c[nH]c3ccccc23)c2c[nH]c3ccccc23)c1 : 31.2
OC[C@@H](O)[C@@H](O)[C@@H](O)C(c1c[nH]c2ccccc12)c1c[nH]c2ccccc12 : 31.2

====

The compounds listed here are annotated with their MIC.
Test system: Staphylococcus aureus
Experiment: Antibacterial activity against Staphylococcus aureus assessed as growth inhibition by agar plate method
Assay type: functional
quantity.name: MIC (µg/mL)

Oc1ccccc1C(c1c[nH]c2ccccc12)c1c[nH]c2ccccc12 : 15.5
OC[C@@H](O)[C@@H](O)[C@@H](O)C(c1c[nH]c2ccccc12)c1c[nH]c2ccccc12 : 62.5
CN[C@@H]1[C@H](O[C@H]2[C@H](O[C@H]3[C@H](O)[C@@H](O)[C@H](N=C(N)N)[C@@H](O)[C@@H]3N=C(N)N)O[C@@H](C)[C@]2(O)C=O)O[C@@H](CO)[C@H](O)[C@H]1O [STREPTOMYCIN] : 12.5
c1ccc2c(C(c3c[nH]c4ccccc34)c3c[nH]c4ccccc34)c[nH]c2c1 : 250
c1cncc(C(c2c[nH]c3ccccc23)c2c[nH]c3ccccc23)c1 : 32.2
c1coc(C(c2c[nH]c3ccccc23)c2c[nH]c3ccccc23)c1 : 125
c1ccc2c(Cc3c[nH]c4ccccc34)c[nH]c2c1 [ARUNDINE] : 250

====

Tested on: Escherichia coli
Assay: Antibacterial activity against Escherichia coli assessed as growth inhibition by agar plate method
Assay type: functional
quantity.name: MIC

CN(C)c1ccc(C(c2c[nH]c3ccccc23)c2c[nH]c3ccccc23)cc1 : > 500 µg/mL
OC[C@@H](O)[C@H](O)[C@H](O)[C@@H](O)C(c1c[nH]c2ccccc12)c1c[nH]c2ccccc12 : > 500 µg/mL
OC[C@@H](O)[C@@H](O)[C@H](O)[C@@H](O)C(c1c[nH]c2ccccc12)c1c[nH]c2ccccc12 : > 500 µg/mL
Oc1ccccc1C(c1c[nH]c2ccccc12)c1c[nH]c2ccccc12 : 15.5 µg/mL
c1ccc(-c2[nH]c3ccccc3c2Cc2c(-c3ccccc3)[nH]c3ccccc23)cc1 : > 500 µg/mL

====

// reported MIC per item
Test system: Rhodococcus
Experiment: Antibacterial activity against Rhodococcus Sp. assessed as growth inhibition by agar plate method
Assay type: functional
quantity.name: MIC (µg/mL)

c1ccc2c(C(c3c[nH]c4ccccc34)c3c[nH]c4ccccc34)c[nH]c2c1 : 31.2
OC[C@@H](O)[C@@H](O)[C@@H](O)C(c1c[nH]c2ccccc12)c1c[nH]c2ccccc12 : 15.5
Oc1ccccc1C(c1c[nH]c2ccccc12)c1c[nH]c2ccccc12 : 7.5

====

Test system: Lactococcus lactis
Test: Antibacterial activity against Lactococcus lactis assessed as growth inhibition by agar plate method
Assay type: functional
Catalogue of MIC values
quantity.name: MIC (µg/mL)

Oc1ccccc1C(c1c[nH]c2ccccc12)c1c[nH]c2ccccc12 : 31.2
c1ccc2c(C(c3c[nH]c4ccccc34)c3c[nH]c4ccccc34)c[nH]c2c1 : 500
OC[C@@H](O)[C@@H](O)[C@@H](O)C(c1c[nH]c2ccccc12)c1c[nH]c2ccccc12 : 62.5
c1ccc2c(Cc3c[nH]c4ccccc34)c[nH]c2c1 : 500
c1cncc(C(c2c[nH]c3ccccc23)c2c[nH]c3ccccc23)c1 : 15.5
CN[C@@H]1[C@H](O[C@H]2[C@H](O[C@H]3[C@H](O)[C@@H](O)[C@H](N=C(N)N)[C@@H](O)[C@@H]3N=C(N)N)O[C@@H](C)[C@]2(O)C=O)O[C@@H](CO)[C@H](O)[C@H]1O : 1.5
c1coc(C(c2c[nH]c3ccccc23)c2c[nH]c3ccccc23)c1 : 62.5

====

Tested on: Mycolicibacterium smegmatis
Experiment: Antibacterial activity against Mycobacterium smegmatis assessed as growth inhibition by agar plate method
Type: functional
quantity.name: MIC (µg/mL)

c1coc(C(c2c[nH]c3ccccc23)c2c[nH]c3ccccc23)c1 : 15.5
c1ccc2c(Cc3c[nH]c4ccccc34)c[nH]c2c1 : 125
c1ccc2c(C(c3c[nH]c4ccccc34)c3c[nH]c4ccccc34)c[nH]c2c1 : 31.2
Oc1ccccc1C(c1c[nH]c2ccccc12)c1c[nH]c2ccccc12 : 6.5
CN[C@@H]1[C@H](O[C@H]2[C@H](O[C@H]3[C@H](O)[C@@H](O)[C@H](N=C(N)N)[C@@H](O)[C@@H]3N=C(N)N)O[C@@H](C)[C@]2(O)C=O)O[C@@H](CO)[C@H](O)[C@H]1O : 1.25

====

Tested on: Rhodococcus
Experiment: Antibacterial activity against Rhodococcus Sp. assessed as growth inhibition by agar plate method
Format: functional
quantity.name: MIC (µg/mL)

c1ccc2c(Cc3c[nH]c4ccccc34)c[nH]c2c1 : 125
c1cncc(C(c2c[nH]c3ccccc23)c2c[nH]c3ccccc23)c1 : 6.5
CN[C@@H]1[C@H](O[C@H]2[C@H](O[C@H]3[C@H](O)[C@@H](O)[C@H](N=C(N)N)[C@@H](O)[C@@H]3N=C(N)N)O[C@@H](C)[C@]2(O)C=O)O[C@@H](CO)[C@H](O)[C@H]1O : 0.75
c1coc(C(c2c[nH]c3ccccc23)c2c[nH]c3ccccc23)c1 : 31.2

====

The reader will find reported MIC values listed item by item below.
Test system: Escherichia coli
Experiment: Antibacterial activity against Escherichia coli assessed as growth inhibition by agar plate method
Format: functional
quantity.name: MIC

COc1ccc2[nH]cc(Cc3c[nH]c4ccc(OC)cc34)c2c1 : > 500 µg/mL
OC[C@@H](O)[C@@H](O)[C@H](O)[C@H](O)C(c1c[nH]c2ccccc12)c1c[nH]c2ccccc12 : > 500 µg/mL
Cc1[nH]c2ccccc2c1Cc1c(C)[nH]c2ccccc12 : > 500 µg/mL

====

System: Mycolicibacterium smegmatis
Assay: Antibacterial activity against Mycobacterium smegmatis assessed as growth inhibition by agar plate method
Assay type: functional
Collected MIC values appear next to each entry.
quantity.name: MIC

OC[C@@H](O)[C@H](O)[C@H](O)[C@@H](O)C(c1c[nH]c2ccccc12)c1c[nH]c2ccccc12 : > 500 µg/mL
OC[C@@H](O)[C@@H](O)[C@H](O)[C@H](O)C(c1c[nH]c2ccccc12)c1c[nH]c2ccccc12 : > 500 µg/mL
Cc1[nH]c2ccccc2c1Cc1c(C)[nH]c2ccccc12 : > 500 µg/mL

====

System: Rhodococcus
Test: Antibacterial activity against Rhodococcus Sp. assessed as growth inhibition by agar plate method
Assay type: functional
Documented MIC across a set of compounds
quantity.name: MIC

Cc1[nH]c2ccccc2c1Cc1c(C)[nH]c2ccccc12 : > 500 µg/mL
OC[C@@H](O)[C@H](O)[C@H](O)[C@@H](O)C(c1c[nH]c2ccccc12)c1c[nH]c2ccccc12 : > 500 µg/mL
OC[C@@H](O)[C@@H](O)[C@H](O)[C@@H](O)C(c1c[nH]c2ccccc12)c1c[nH]c2ccccc12 : > 500 µg/mL

====

Test system: Lactococcus lactis
Assay: Antibacterial activity against Lactococcus lactis assessed as growth inhibition by agar plate method
Format: functional
quantity.name: MIC

CN(C)c1ccc(C(c2c[nH]c3ccccc23)c2c[nH]c3ccccc23)cc1 : > 500 µg/mL
OC[C@@H](O)[C@@H](O)[C@H](O)[C@@H](O)C(c1c[nH]c2ccccc12)c1c[nH]c2ccccc12 : > 500 µg/mL
OC[C@@H](O)[C@H](O)[C@H](O)[C@@H](O)C(c1c[nH]c2ccccc12)c1c[nH]c2ccccc12 : > 500 µg/mL
OC[C@@H](O)[C@@H](O)[C@H](O)[C@H](O)C(c1c[nH]c2ccccc12)c1c[nH]c2ccccc12 : > 500 µg/mL
c1ccc(-c2[nH]c3ccccc3c2Cc2c(-c3ccccc3)[nH]c3ccccc23)cc1 : > 500 µg/mL
COc1ccc2[nH]cc(Cc3c[nH]c4ccc(OC)cc34)c2c1 : > 500 µg/mL
Cc1[nH]c2ccccc2c1Cc1c(C)[nH]c2ccccc12 : > 500 µg/mL
